The measured values listed here are drawn from patent US20200079833A1.

Let's look at some binders and their measured INS1e assay EC50 GLP-1 R n1.
- MEASURED_TARGET: T1, GLP-1R (INS1e assay) (UniProt P32301 22-463, limits assumed)
- T1 sequence (looked up): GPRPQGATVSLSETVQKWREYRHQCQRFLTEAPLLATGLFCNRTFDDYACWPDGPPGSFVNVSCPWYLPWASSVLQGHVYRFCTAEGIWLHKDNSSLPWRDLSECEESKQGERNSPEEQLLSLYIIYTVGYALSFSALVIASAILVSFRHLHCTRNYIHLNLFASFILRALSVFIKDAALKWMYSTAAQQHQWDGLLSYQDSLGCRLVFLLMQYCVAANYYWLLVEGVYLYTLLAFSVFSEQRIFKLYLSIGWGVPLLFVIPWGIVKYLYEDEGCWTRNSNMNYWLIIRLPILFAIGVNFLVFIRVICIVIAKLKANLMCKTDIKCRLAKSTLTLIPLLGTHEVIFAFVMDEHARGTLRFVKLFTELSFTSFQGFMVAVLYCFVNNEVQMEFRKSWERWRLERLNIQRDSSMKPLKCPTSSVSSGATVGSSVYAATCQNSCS
- TEST_PROTOCOL: cell-based or functional assay
Starred links: 1 amine or outer side, 2 acyl side, 3 side chain; linkers in the order of their positions; H or OH if unused. Non-standard residues stand in square brackets, D forms with d. Groups on a side chain read outwards from the residue. Primed or numbered codes have the meaning given here. No end group written: not given here. *: point of attachment. γGlu = O=C(O)[C@H](CCC(=O)[*:2])N[*:1]; Stearoyl = CCCCCCCCCCCCCCCCCC(=O)*; αMeF = C[C@](N)(Cc1ccccc1)C(=O)O; αMeK = C[C@](N)(CCCCN)C(=O)O; αMeS = C[C@](N)(CO)C(=O)O; PEG2′ = not defined here; Aib = CC(C)(N)C(=O)O
MEASUREMENT_KIND: INS1e assay EC50 GLP-1 R n1 (nM)

[[record]]
binder = "H[Aib]EGS[αMeF]TSDV[αMeS]K([PEG2′-PEG2′-γGlu-Stearoyl])[αMeF]LEGEAA[αMeK]E[αMeF]IA[αMeF]VV[αMeK]GG-NH2 [SEQ ID NO 117]"
measurement_kind = "INS1e assay EC50 GLP-1 R n1"
unit_descriptor = "nM"
result_value = 0.765

[[record]]
binder = "H[Aib]EGS[αMeF]TSDV[αMeS]S[αMeF]LEGEAK([PEG2′-PEG2′-γGlu-Stearoyl])[αMeK]E[αMeF]IA[αMeF]VV[αMeK]GG-NH2 [SEQ ID NO 110]"
measurement_kind = "INS1e assay EC50 GLP-1 R n1"
unit_descriptor = "nM"
result_value = 31.6

[[record]]
binder = "HXEGTFTSDVSSYLEGQAAKEFIAWLVKGRK (Aib2; K(ε-(PEG)2-(PEG)2-γE-Stearate) after R30; C-terminal amide) [SEQ ID NO 6]"
measurement_kind = "INS1e assay EC50 GLP-1 R n1"
unit_descriptor = "nM"
result_value = 0.104

